assay: Aqueous solubility of the compound at pH 4.0 to 6.2; assay type: physicochemical; conditions: aqueous solution
MEASURED_PARAMETER: solubility (mg/mL)
Please reply with the bare figure in mg/mL and do not write the unit itself.

solubility lookup needed for Cc1cc(C[C@@H](NC(=O)N2CCC(N3Cc4ccccc4NC3=O)CC2)C(=O)N2CCC(N3CCCCC3)CC2)cc2cn[nH]c12.Cl , thanks. 13

###

target: UniProt P08684; test: Inhibition of CYP3A4 (unknown origin) using 7-benzyloxy-4-trifluoromethylcoumarin as substrate; assay type: ADME; details: probe 7-benzyloxy-4-trifluoromethylcoumarin
Sequence (P08684 whole entry): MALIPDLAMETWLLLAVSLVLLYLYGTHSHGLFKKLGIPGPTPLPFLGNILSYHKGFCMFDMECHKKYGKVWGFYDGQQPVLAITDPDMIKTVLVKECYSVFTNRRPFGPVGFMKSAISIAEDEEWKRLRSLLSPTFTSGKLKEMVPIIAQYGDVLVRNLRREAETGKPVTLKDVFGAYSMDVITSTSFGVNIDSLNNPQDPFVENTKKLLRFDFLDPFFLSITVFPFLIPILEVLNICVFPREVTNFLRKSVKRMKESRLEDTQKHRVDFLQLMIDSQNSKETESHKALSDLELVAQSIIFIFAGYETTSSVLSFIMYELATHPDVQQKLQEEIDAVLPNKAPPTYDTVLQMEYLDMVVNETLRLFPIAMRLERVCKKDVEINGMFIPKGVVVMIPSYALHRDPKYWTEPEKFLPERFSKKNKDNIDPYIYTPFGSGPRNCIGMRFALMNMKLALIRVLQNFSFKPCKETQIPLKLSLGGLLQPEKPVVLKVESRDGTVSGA
pIC50: −log10 of the molar value.
MEASURED_PARAMETER: pIC50

pIC50 lookup needed for O=C(N[C@H](Cc1ccc2[nH]ncc2c1)C(=O)N1CCC(N2CCCCC2)CC1)N1CCC(N2Cc3ccccc3NC2=O)CC1 , thanks. < 4.40
